target: PDGF-receptor beta enzyme comprising the tyrosine kinase domain (Homo sapiens); construct: from amino acid 545 to 1106 of GenBank Access NO: AAA36427; assay: Inhibition of PDGF-receptor kinase activity (cell-free, PLC1 peptide, 33P Flashplate); type: biochemical; conditions: PDGF-R kinase activity; read-out: IC50
ENDPOINT LABEL: IC50 (nM)

Using the record for COc1cccc(Nc2[nH]nc3c2Cc2c(OCCCN(C)C)cccc2-3)c1 , state its measured IC50.
424

(A) CN(C)CCCOc1ccc2c(c1)Cc1c-2n[nH]c1Nc1ccc(F)cc1
(B) COc1cccc(Nc2[nH]nc3c2Cc2ccccc2-3)c1
Of the two listed items, A and B , which carries the larger IC50 figure? Write the label of whichever entry you select.
A

(A) OCCCOc1cc2c(cc1OCCCO)-c1n[nH]c(Nc3cccnc3)c1C2
(B) Fc1ccc(Nc2[nH]nc3c2Cc2sccc2-3)cc1Cl
(C) CCOC(=O)Cn1nc(Nc2cccc(F)c2)c2c1-c1cc(OC)c(OC)cc1C2
(D) Brc1ccc2c(c1)Cc1c-2n[nH]c1Nc1cccnc1
Arrange by IC50, high to low. Provide the labels, sequenced as the question asks.
C, B, D, A
(C: 12500 nM, B: 1110 nM, D: 174 nM, A: 15.5 nM)

(1) COc1cc2c(cc1OC)-c1n[nH]c(Nc3ccco3)c1C2
(2) Fc1ccc(F)c(Nc2[nH]nc3c2Cc2cc(Cl)ccc2-3)c1
(3) COc1cc2c(cc1OC)-c1c(c(Nc3cccc(F)c3)nn1C(=O)Oc1ccc(F)cc1)C2
(4) COc1cc2c(cc1OC)-c1n[nH]c(NCc3cccnc3)c1C2
(5) COc1cc2c(cc1OC)C(C)c1c-2n[nH]c1Nc1ccc(F)c(Cl)c1 (stereo not drawn)
Sort ascending by IC50. Lab note: final answer is the ordered label list.
2, 5, 3, 4, 1
(2: 103 nM, 5: 223 nM, 3: 492 nM, 4: 886 nM, 1: 1290 nM)

----------
target: PDGF-receptor beta enzyme comprising the tyrosine kinase domain (Homo sapiens); construct: from amino acid 545 to 1106 of GenBank Access NO: AAA36427; experiment: Inhibition of PDGF-receptor kinase activity (cell-free, PLC1 peptide, 33P Flashplate); assay type: biochemical; conditions: PDGF-R kinase activity; read-out: IC50
pIC50: −log10 of the molar value.
ENDPOINT LABEL: pIC50

Give reported pIC50 value for Fc1cccc(Nc2[nH]nc3c2oc2ccccc23)c1 [Compound 380]
7.81

Note down pIC50 recorded for COc1ccc(OC)c(Nc2[nH]nc3c2Cc2cc(F)ccc2-3)c1 [Compound 203]
7.80

Note pIC50 for the compound shown: COc1ccc2c(c1)Cc1c-2n[nH]c1Nc1ccc(F)cc1 [Compound 82]
6.56

Please give measured pIC50 of the following entry: Fc1ccc2c(c1)Cc1c-2n[nH]c1Nc1cc(C(F)(F)F)cc(C(F)(F)F)c1 [Compound 239]
6.86

Consider the compound COc1cc2c(cc1OC)-c1c(c(Nc3cccc(F)c3)nn1CC(N)=O)C2 [Compound 534] . State its measured pIC50.
6.03

(a) OCCCOc1cccc2c1Cc1c-2n[nH]c1Nc1cccc(F)c1 [Compound 442]
(b) COc1cc2c(cc1OC)-c1n[nH]c(Nc3ccc4c(c3)CCC4)c1C2 [Compound 79]
Kindly identify which of a and b has the larger recorded pIC50 value. Let me know the label of the one you choose.
a

----------
Biological target: PDGF-receptor beta enzyme comprising the tyrosine kinase domain (Homo sapiens, UniProt P09619)
Construct: from amino acid 545 to 1106 of GenBank Access NO: AAA36427
Sequence (P09619 545-1106): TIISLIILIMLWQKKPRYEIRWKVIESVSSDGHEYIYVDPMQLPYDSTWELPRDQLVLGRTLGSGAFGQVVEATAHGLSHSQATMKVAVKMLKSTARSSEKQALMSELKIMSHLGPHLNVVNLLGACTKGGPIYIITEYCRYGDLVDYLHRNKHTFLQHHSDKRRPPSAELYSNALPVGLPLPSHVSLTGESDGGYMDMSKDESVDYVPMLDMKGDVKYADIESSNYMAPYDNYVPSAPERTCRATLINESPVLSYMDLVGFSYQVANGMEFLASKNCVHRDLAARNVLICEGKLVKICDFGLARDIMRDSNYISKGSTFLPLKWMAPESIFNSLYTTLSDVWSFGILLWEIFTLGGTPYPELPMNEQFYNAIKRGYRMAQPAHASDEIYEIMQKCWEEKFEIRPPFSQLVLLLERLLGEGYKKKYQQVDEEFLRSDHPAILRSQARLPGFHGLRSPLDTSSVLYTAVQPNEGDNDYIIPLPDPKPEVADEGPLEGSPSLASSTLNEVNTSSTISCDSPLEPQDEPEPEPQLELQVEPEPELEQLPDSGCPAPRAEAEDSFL
Experiment: Inhibition of PDGF-receptor kinase activity (cell-free, PLC1 peptide, 33P Flashplate)
Type: biochemical
Conditions: PDGF-R kinase activity; compound at 10 uM; read-out: Percent Inhibition @ 10 uM
Method: PDGF-R kinase activity was assayed by its ability to phosphorylate one of its target proteins, PLCγ, in a cell-free system, in particular, a PLC1 peptide comprising the tyrosine residue where the phosphorylation occurs was used for the assay. […] In order to test the potency of inhibition of present compounds, an IC50 for an individual compound was measured using the above procedure. […]
ENDPOINT LABEL: inhibition at 10 µM (%)

Known results for compounds:
Identify the reported inhibition at 10 µM for the following entry. CCOc1cccc(Nc2[nH]nc3c2Cc2cc(OCC(O)CO)c(OC)cc2-3)c1 (stereo not drawn)
100

Fill in reported inhibition at 10 µM for this entry: CCOc1cccc(Nc2[nH]nc3c2Cc2cc(OCC)c(OCCCO)cc2-3)c1
96

Give the reported value of inhibition at 10 µM for this record: COc1cccc(Nc2n[nH]c3c2Cc2c-3cc(OC)c3oc(C)nc23)c1
102

Indicate its recorded inhibition at 10 µM; the compound in question is CC(C)Oc1cc2c(cc1OC(C)C)C(C)c1c-2n[nH]c1Nc1cccc(F)c1 (stereo not drawn)
93

Give me measured inhibition at 10 µM, please, for this compound: CN1CCN(c2ccc3c(c2)Cc2c-3n[nH]c2Nc2cccc(Cl)c2)CC1
94

Name the recorded inhibition at 10 µM of the compound listed here: COc1cc2c(cc1OC)-c1c(c(Nc3cccc(F)c3)nn1CC(C)=O)C2
87

(a) COc1cc2c(cc1OC)-c1n[nH]c(Nc3c(F)cccc3F)c1C2
(b) COc1cc2c(cc1OC)C(C)(C)c1c-2n[nH]c1Nc1cccc(Cl)c1
(c) COc1cc2c(cc1OC)-c1n[nH]c(Nc3cnccc3C(F)(F)F)c1C2
Output the entries ranked by inhibition at 10 µM from maximum down to minimum. I'd appreciate it if you listed the labels in the requested order.
a, b, c
(a: 88.5%, b: 34.5%, c: 19%)

(a) OCCCOc1cccc2c1Cc1c-2n[nH]c1NCc1ccccc1F
(b) CN(C)CCCOc1ccc2c(c1)Cc1c-2n[nH]c1Nc1ccc(OC(F)(F)F)cc1
Choose between a and b : whose measured inhibition at 10 µM value is numerically larger? Output the label that corresponds to your choice.
a
(a: 79.5%, b: 51%)

(I) CCOc1cc2c(cc1OCC(O)CN1CCCC1)-c1n[nH]c(Nc3cccc(OC)c3)c1C2 (stereo not drawn)
(II) COc1cc2c(cc1OC)-c1n[nH]c(Nc3ccc(F)c([N+](=O)[O-])c3)c1C2
Between I and II , whose measured inhibition at 10 µM reads higher? Give the label of your selection.
I

----------
molecular target: PDGF-receptor beta enzyme comprising the tyrosine kinase domain (Homo sapiens); construct: from amino acid 545 to 1106 of GenBank Access NO: AAA36427; test: Inhibition of PDGF-receptor kinase activity (cell-free, PLC1 peptide, 33P Flashplate); type: biochemical; conditions: PDGF-R kinase activity; compound at 10 uM; read-out: Percent Inhibition @ 10 uM
ENDPOINT LABEL: inhibition at 10 µM (%)

As a guide, the following entries are already answered.
Provide one value: measured inhibition at 10 µM of COc1cc2c(cc1OCC(O)CN1CCCC1)Cc1c-2n[nH]c1Nc1ccc(F)c(Cl)c1 (centres unmarked) [Compound 280]
102

Entry CCOc1cccc(Nc2[nH]nc3c2Cc2cc(OC)c(OC)cc2-3)c1 [Compound 374] needs its inhibition at 10 µM filled in; supply it.
100

Output measured inhibition at 10 µM for this item: COc1cc2c(cc1OC)[C@@H](C)c1c-2n[nH]c1Nc1cccc(Br)c1 [Compound 553]
99.5

Look up and report measured inhibition at 10 µM for this entry: COc1cc2c(cc1OC)-c1c(c(Nc3cccc(F)c3)nn1C(=O)NCCNC(=O)c1ccccc1)C2 [Compound 532]
42

Respond only with inhibition at 10 µM recorded for c1ccc(Nc2[nH]nc3c2Cc2cc(N4CCCCC4)ccc2-3)cc1 [Compound 65]
76

Hello, please tell me recorded inhibition at 10 µM for this one: COc1cc2c(cc1OC)-c1n[nH]c(NCc3cc(Cl)ccc3Cl)c1C2 [Compound 330]
100

(A) c1ccc(Nc2[nH]nc3c2CCc2sccc2-3)cc1 [Compound 52]
(B) COc1cc2c(cc1OCc1ccccc1)-c1n[nH]c(Nc3cccc(F)c3)c1C2 [Compound 549]
A or B : whose inhibition at 10 µM is greater? Let me know the label of the one you choose.
B

(a) CCCCCCCCCCCCCCCNC(=O)n1nc2c(c1Nc1cccc(F)c1)Cc1cc(OC)c(OC)cc1-2 [Compound 598]
(b) CCOc1cccc(Nc2[nH]nc3c2Cc2sccc2-3)c1 [Compound 405]
(c) COc1cc2c(cc1OC)C(c1ccccc1)c1c-2n[nH]c1Nc1cccc(F)c1 (centres unmarked) [Compound 302]
(d) COc1ccc(OC)c(Nc2[nH]nc3c2Cc2c(OC)cccc2-3)c1 [Compound 147]
(e) COc1cc2c(cc1OC)C(C)c1c-2n[nH]c1Nc1cc(F)ccc1F (centres unmarked) [Compound 252]
List by increasing inhibition at 10 µM. Answer by naming the labels in the order asked.
a, e, d, c, b

(A) COc1cc2c(cc1OC)-c1n[nH]c(N(c3cccc(F)c3)[C@@H]3O[C@H](C(=O)O)[C@@H](O)[C@H](O)[C@H]3O)c1C2 [Compound 591]
(B) COCCCOc1ccc2c(c1)Cc1c-2n[nH]c1Nc1ccc(F)cc1 [Compound 136]
Choose between A and B : whose measured inhibition at 10 µM value is numerically larger? In your reply, give the label of the chosen option.
A
